Measured values drawn from patent US8110573B2 for this set.

- assay_procedure: physchem
- setup_conditions: water, thermodynamic from solid
Structures can show the parent of a compound that is named as a salt.
quantity_name: solubility at 16 h

Which solubility at 16 h reading was recorded for the compound O=C(Nc1c[nH]nc1-c1nc2cc(CN3CCOCC3)ccc2[nH]1)NC1CC1 [Hydrochloride] ?
< 25 mg/mL

----------
- target_or_test_system: CDK1/CyclinB (Homo sapiens)
- Sequence (P06493 whole entry): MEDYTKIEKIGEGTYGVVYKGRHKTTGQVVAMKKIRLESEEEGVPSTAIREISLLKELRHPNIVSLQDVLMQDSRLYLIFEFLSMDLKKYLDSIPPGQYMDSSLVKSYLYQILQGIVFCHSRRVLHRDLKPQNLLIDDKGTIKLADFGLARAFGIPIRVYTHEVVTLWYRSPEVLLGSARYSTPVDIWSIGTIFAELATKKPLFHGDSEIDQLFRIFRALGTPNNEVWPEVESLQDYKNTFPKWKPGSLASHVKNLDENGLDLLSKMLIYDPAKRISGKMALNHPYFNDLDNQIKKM
- Sequence (P14635 whole entry partner): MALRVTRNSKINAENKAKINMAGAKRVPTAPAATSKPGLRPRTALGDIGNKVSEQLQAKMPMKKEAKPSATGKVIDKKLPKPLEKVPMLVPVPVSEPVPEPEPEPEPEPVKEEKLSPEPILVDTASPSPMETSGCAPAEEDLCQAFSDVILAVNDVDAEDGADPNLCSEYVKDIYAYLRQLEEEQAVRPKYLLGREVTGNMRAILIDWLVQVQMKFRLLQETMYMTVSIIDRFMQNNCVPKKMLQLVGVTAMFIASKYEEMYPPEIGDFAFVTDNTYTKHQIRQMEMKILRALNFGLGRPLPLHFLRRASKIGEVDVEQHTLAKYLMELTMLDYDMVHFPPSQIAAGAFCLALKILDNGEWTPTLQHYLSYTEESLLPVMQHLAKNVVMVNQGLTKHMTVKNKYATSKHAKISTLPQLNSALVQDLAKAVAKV
- assay_procedure: Activated CDK1/CyclinB kinase inhibitory activity assay
Provide the reported IC50 of each item.

Which IC50 reading was recorded for the compound COc1ccc(Cl)cc1C(=O)Nc1c[nH]nc1-c1nc2cc(CN3CCN(C)CC3)ccc2[nH]1 [Example 22] ?
< 1 µM

Which IC50 reading was recorded for the compound O=C(Nc1cc(F)ccc1F)Nc1c[nH]nc1-c1nc2cc(CN3CCOCC3)ccc2[nH]1 [Example 47] ?
< 1 µM

Which IC50 reading was recorded for the compound O=C(Nc1c[nH]nc1-c1nc2cc(CN3CCOCC3)ccc2[nH]1)C1CCOC1 (centres unmarked) [Example 9] ?
< 10 µM

Which IC50 reading was recorded for the compound O=C(Nc1cc(F)cc(F)c1)Nc1c[nH]nc1-c1nc2cc(CN3CCOCC3)ccc2[nH]1 [Example 53] ?
< 10 µM

Which IC50 reading was recorded for the compound O=C(Nc1c[nH]nc1-c1nc2cc(CN3CCOCC3)ccc2[nH]1)C1CCCO1 (centres unmarked) [Example 11] ?
< 1 µM

Which IC50 reading was recorded for the compound COc1ccc(Cl)cc1NC(=O)Nc1c[nH]nc1-c1nc2cc(CN3CCOCC3)ccc2[nH]1 [Example 56] ?
< 10 µM

Which IC50 reading was recorded for the compound CN(C)NC(=O)Nc1c[nH]nc1-c1nc2cc(CN3CCOCC3)ccc2[nH]1 [Example 31] ?
< 10 µM

Which IC50 reading was recorded for the compound CN(C(=O)Nc1c[nH]nc1-c1nc2cc(CN3CCOCC3)ccc2[nH]1)c1ccc(F)cc1F [Example 42] ?
< 1 µM

Which IC50 reading was recorded for the compound CC(C)(CO)C(=O)Nc1c[nH]nc1-c1nc2cc(CN3CCOCC3)ccc2[nH]1 [Example 8] ?
< 10 µM

Which IC50 reading was recorded for the compound O=C(NCC1CC1)Nc1c[nH]nc1-c1nc2cc(CN3CCOCC3)ccc2[nH]1 [Example 34] ?
< 10 µM

Which IC50 reading was recorded for the compound CC(C)(C)NC(=O)Nc1c[nH]nc1-c1nc2cc(CN3CCOCC3)ccc2[nH]1 [Example 45] ?
< 10 µM

Which IC50 reading was recorded for the compound N#CCC(=O)Nc1c[nH]nc1-c1nc2cc(CN3CCOCC3)ccc2[nH]1 [Example 3] ?
< 10 µM

Which IC50 reading was recorded for the compound CS(=O)(=O)CCNC(=O)Nc1c[nH]nc1-c1nc2cc(CN3CCOCC3)ccc2[nH]1 [Example 33] ?
< 50 µM

Which IC50 reading was recorded for the compound O=C(Nc1c[nH]nc1-c1nc2cc(CN3CCOCC3)ccc2[nH]1)Nc1c(F)cc(F)cc1F [Example 54] ?
< 1 µM

Which IC50 reading was recorded for the compound COc1cc2nc(-c3n[nH]cc3NC(=O)c3ccoc3CN(C)C)[nH]c2cc1OC [Example 20] ?
< 10 µM

Which IC50 reading was recorded for the compound COc1cc2nc(-c3n[nH]cc3NC(=O)C3CCCN(C)C3)[nH]c2cc1OC (racemic) [Example 17] ?
< 10 µM

Which IC50 reading was recorded for the compound CN(C(=O)Nc1c[nH]nc1-c1nc2cc(CN3CCOCC3)ccc2[nH]1)c1ccc(F)cc1 [Example 37] ?
< 50 µM
